Numbers sourced from the supplement of paper PMC10702517.

experiment: chemical recovery into PDMS from spiked human plasma; higher = better extraction
condition.summary: pooled human plasma; extraction method: PES with PDMS; equilibration time (d): 3
measure.name: chemical recovery into PDMS (%)
Write the number in % without appending the unit.

See these solved cases before continuing.
CCCCCCCCn1sccc1=O
35.5
CNC(=O)Oc1cccc2c1OC(C)(C)O2
20.4
CC[C@H]1CCC[C@H](O[C@H]2CC[C@H](N(C)C)[C@@H](C)O2)[C@@H](C)C(=O)C2=C[C@@H]3[C@@H](C=C[C@@H]4C[C@@H](O[C@@H]5O[C@@H](C)[C@H](OC)[C@@H](OC)[C@H]5OC)C[C@@H]34)[C@@H]2CC(=O)O1 [Spinosyn A]
0.0193

For the next question, use this molecule.
c1cc2cccc3c4cccc5cccc(c(c1)c23)c54 yielded chemical recovery into PDMS of 71.9
